Where these numbers come from: the NIST ThermoML archive (doi:10.1016/j.fluid.2018.09.024)

assay: activity coefficient (dimensionless); of the first substance listed, at infinite dilution; xn = mol fraction of the nth substance listed; conditions: 338.15 K; 101.33 kPa; Liquid; Chromatography; x1 = 0
Measured activity coefficient accompanies every entry in the list below.

Study these solved cases before continuing.
COMPOUND: CC(C)OC(C)C [diisopropyl ether] + CCCCCCCCCCCC[N+](C)(C)CCOc1ccccc1.O=S(=O)([N-]S(=O)(=O)C(F)(F)F)C(F)(F)F
activity coefficient: 2.03

COMPOUND: C1CCCCCC1 [cycloheptane] + CCCCCCCCCCCC[N+](C)(C)CCOc1ccccc1.O=S(=O)([N-]S(=O)(=O)C(F)(F)F)C(F)(F)F
activity coefficient: 2.34

COMPOUND: C=C(C)c1ccccc1 [(1-methylethenyl)benzene] + CCCCCCCCCCCC[N+](C)(C)CCOc1ccccc1.O=S(=O)([N-]S(=O)(=O)C(F)(F)F)C(F)(F)F
activity coefficient: 0.881

COMPOUND: CCCCCCCCCC [decane] + CCCCCCCCCCCC[N+](C)(C)CCOc1ccccc1.O=S(=O)([N-]S(=O)(=O)C(F)(F)F)C(F)(F)F
activity coefficient: 5.87

So, O [water] + CCCCCCCCCCCC[N+](C)(C)CCOc1ccccc1.O=S(=O)([N-]S(=O)(=O)C(F)(F)F)C(F)(F)F ? Its activity coefficient was 3.04

So, C1CCCCC1 [cyclohexane] + CCCCCCCCCCCC[N+](C)(C)CCOc1ccccc1.N#C[N-]C#N ? Its activity coefficient was 3.16

So, CCCC(=O)OC [methyl butanoate] + CCCCCCCCCCCC[N+](C)(C)CCOc1ccccc1.O=S(=O)([N-]S(=O)(=O)C(F)(F)F)C(F)(F)F ? Its activity coefficient was 0.636

So, CO [methanol] + CCCCCCCCCCCC[N+](C)(C)CCOc1ccccc1.O=S(=O)([N-]S(=O)(=O)C(F)(F)F)C(F)(F)F ? Its activity coefficient was 1.04

So, C=Cc1ccccc1 [styrene] + CCCCCCCCCCCC[N+](C)(C)CCOc1ccccc1.O=S(=O)([N-]S(=O)(=O)C(F)(F)F)C(F)(F)F ? Its activity coefficient was 0.711

So, C=Cc1ccccc1 [styrene] + CCCCCCCCCCCC[N+](C)(C)CCOc1ccccc1.N#C[N-]C#N ? Its activity coefficient was 0.94

So, C#CCCCC [1-hexyne] + CCCCCCCCCCCC[N+](C)(C)CCOc1ccccc1.N#C[N-]C#N ? Its activity coefficient was 1.74

So, CCCCCCCC [octane] + CCCCCCCCCCCC[N+](C)(C)CCOc1ccccc1.O=S(=O)([N-]S(=O)(=O)C(F)(F)F)C(F)(F)F ? Its activity coefficient was 4.23

So, CCC[N+](=O)[O-] [1-nitropropane] + CCCCCCCCCCCC[N+](C)(C)CCOc1ccccc1.N#C[N-]C#N ? Its activity coefficient was 0.85

So, COC(C)=O [methyl ethanoate] + CCCCCCCCCCCC[N+](C)(C)CCOc1ccccc1.O=S(=O)([N-]S(=O)(=O)C(F)(F)F)C(F)(F)F ? Its activity coefficient was 0.534

---

assay: activity coefficient (dimensionless); of the first substance listed, at infinite dilution; xn = mol fraction of the nth substance listed; conditions: 338.15 K; 101.33 kPa; Liquid; Chromatography; x1 = 0
PROPERTY LABEL: activity coefficient

Study these solved cases before continuing.
COMPOUND: CCCCCC [hexane] + CCCCCCCCCCCC[N+](C)(C)CCOc1ccccc1.O=S(=O)([N-]S(=O)(=O)C(F)(F)F)C(F)(F)F
activity coefficient: 3.06
--
COMPOUND: C=CCCCCC [1-heptene] + CCCCCCCCCCCC[N+](C)(C)CCOc1ccccc1.N#C[N-]C#N
activity coefficient: 4.28
--
COMPOUND: CCCC(C)=O [pentan-2-one] + CCCCCCCCCCCC[N+](C)(C)CCOc1ccccc1.O=S(=O)([N-]S(=O)(=O)C(F)(F)F)C(F)(F)F
activity coefficient: 0.434
--
COMPOUND: Cc1ccc(C)cc1 [1,4-dimethylbenzene] + CCCCCCCCCCCC[N+](C)(C)CCOc1ccccc1.O=S(=O)([N-]S(=O)(=O)C(F)(F)F)C(F)(F)F
activity coefficient: 0.967

So, CCCO [propan-1-ol] + CCCCCCCCCCCC[N+](C)(C)CCOc1ccccc1.N#C[N-]C#N ? Its activity coefficient was 0.435

So, CC1CCCCC1 [methylcyclohexane] + CCCCCCCCCCCC[N+](C)(C)CCOc1ccccc1.O=S(=O)([N-]S(=O)(=O)C(F)(F)F)C(F)(F)F ? Its activity coefficient was 2.43

So, CCOC(C)(C)C [2-ethoxy-2-methylpropane] + CCCCCCCCCCCC[N+](C)(C)CCOc1ccccc1.N#C[N-]C#N ? Its activity coefficient was 3.74

---

experiment: activity coefficient (dimensionless); of the first substance listed, at infinite dilution; xn = mol fraction of the nth substance listed; conditions: 348.15 K; 101.33 kPa; Liquid; Chromatography; x1 = 0
PROPERTY LABEL: activity coefficient
// response body must contain only the number

COMPOUND: C1COCCO1 [1,4-dioxane] + CCCCCCCCCCCC[N+](C)(C)CCOc1ccccc1.N#C[N-]C#N
activity coefficient: 0.818
--
COMPOUND: Cc1ccccc1C [1,2-dimethylbenzene] + CCCCCCCCCCCC[N+](C)(C)CCOc1ccccc1.N#C[N-]C#N
activity coefficient: 1.32
--
COMPOUND: CCOC(C)=O [ethyl acetate] + CCCCCCCCCCCC[N+](C)(C)CCOc1ccccc1.N#C[N-]C#N
activity coefficient: 1.27
--
COMPOUND: CCC(C)O (configuration not stated) [butan-2-ol] + CCCCCCCCCCCC[N+](C)(C)CCOc1ccccc1.O=S(=O)([N-]S(=O)(=O)C(F)(F)F)C(F)(F)F
activity coefficient: 1.15
--
COMPOUND: C#CCCCC [1-hexyne] + CCCCCCCCCCCC[N+](C)(C)CCOc1ccccc1.N#C[N-]C#N
activity coefficient: 1.82

So, C=CCCCCC [1-heptene] + CCCCCCCCCCCC[N+](C)(C)CCOc1ccccc1.N#C[N-]C#N ? Its activity coefficient was 4.36

So, C1CCCCCC1 [cycloheptane] + CCCCCCCCCCCC[N+](C)(C)CCOc1ccccc1.O=S(=O)([N-]S(=O)(=O)C(F)(F)F)C(F)(F)F ? Its activity coefficient was 2.37

---

experiment: activity coefficient (dimensionless); of the first substance listed, at infinite dilution; xn = mol fraction of the nth substance listed; details: 368.15 K; 101.33 kPa; Liquid; Chromatography; x1 = 0
Quick rule for you: activity coefficient at 1 or higher means 1, lower means -1.

Example results:
MOLECULE: c1ccncc1 [pyridine] + CCCCCCCCCCCC[N+](C)(C)CCOc1ccccc1.N#C[N-]C#N
QUALITATIVE LABEL: -1
--
MOLECULE: CCCCCCCCC [nonane] + CCCCCCCCCCCC[N+](C)(C)CCOc1ccccc1.O=S(=O)([N-]S(=O)(=O)C(F)(F)F)C(F)(F)F
QUALITATIVE LABEL: 1
--
MOLECULE: CCCC=O [butanal] + CCCCCCCCCCCC[N+](C)(C)CCOc1ccccc1.O=S(=O)([N-]S(=O)(=O)C(F)(F)F)C(F)(F)F
QUALITATIVE LABEL: -1

Form field: activity coefficient at least 1? Entry: CO [methanol] + CCCCCCCCCCCC[N+](C)(C)CCOc1ccccc1.N#C[N-]C#N -1

Form field: activity coefficient at least 1? Entry: C=CCCC [1-pentene] + CCCCCCCCCCCC[N+](C)(C)CCOc1ccccc1.O=S(=O)([N-]S(=O)(=O)C(F)(F)F)C(F)(F)F 1

Form field: activity coefficient at least 1? Entry: CC(C)OC(C)C [diisopropyl ether] + CCCCCCCCCCCC[N+](C)(C)CCOc1ccccc1.O=S(=O)([N-]S(=O)(=O)C(F)(F)F)C(F)(F)F 1

Form field: activity coefficient at least 1? Entry: CC(C)c1ccccc1 [isopropylbenzene] + CCCCCCCCCCCC[N+](C)(C)CCOc1ccccc1.O=S(=O)([N-]S(=O)(=O)C(F)(F)F)C(F)(F)F 1

Form field: activity coefficient at least 1? Entry: C1CCCCCC1 [cycloheptane] + CCCCCCCCCCCC[N+](C)(C)CCOc1ccccc1.O=S(=O)([N-]S(=O)(=O)C(F)(F)F)C(F)(F)F 1

Form field: activity coefficient at least 1? Entry: c1ccsc1 [thiophene] + CCCCCCCCCCCC[N+](C)(C)CCOc1ccccc1.O=S(=O)([N-]S(=O)(=O)C(F)(F)F)C(F)(F)F -1

Form field: activity coefficient at least 1? Entry: CC1CCCCC1 [methylcyclohexane] + CCCCCCCCCCCC[N+](C)(C)CCOc1ccccc1.O=S(=O)([N-]S(=O)(=O)C(F)(F)F)C(F)(F)F 1

Form field: activity coefficient at least 1? Entry: CC(C)=O [acetone] + CCCCCCCCCCCC[N+](C)(C)CCOc1ccccc1.N#C[N-]C#N -1

Form field: activity coefficient at least 1? Entry: CCCCCCCCCC [decane] + CCCCCCCCCCCC[N+](C)(C)CCOc1ccccc1.N#C[N-]C#N 1

Form field: activity coefficient at least 1? Entry: CCCCCO [pentan-1-ol] + CCCCCCCCCCCC[N+](C)(C)CCOc1ccccc1.O=S(=O)([N-]S(=O)(=O)C(F)(F)F)C(F)(F)F 1

Form field: activity coefficient at least 1? Entry: C1CCOC1 [tetrahydrofuran] + CCCCCCCCCCCC[N+](C)(C)CCOc1ccccc1.N#C[N-]C#N -1
